- assay_setup: 313.15 K; 100 kPa; Liquid
Numbers after ± are expanded uncertainties.
measured_attribute: mass density

{"columns": ["molecule", "measured_attribute", "readout_value"],
 "data": [
  ["CCCCCCCCn1cc[n+](C)c1.O=S(=O)([N-]S(=O)(=O)C(F)(F)F)C(F)(F)F", "mass density", "1305 ± 3 kg/m3"],
  ["CCn1cc[n+](C)c1.F[B-](F)(F)F [1-ethyl-3-methylimidazolium tetrafluoroborate]", "mass density", "1288 ± 2 kg/m3"],
  ["CCn1cc[n+](C)c1.O=S(=O)([N-]S(=O)(=O)C(F)(F)F)C(F)(F)F", "mass density", "1503 ± 4 kg/m3"],
  ["CCCCCCCn1cc[n+](C)c1.O=S(=O)([N-]S(=O)(=O)C(F)(F)F)C(F)(F)F", "mass density", "1332 ± 3 kg/m3"]
]}

Data origin: the NIST ThermoML archive (doi:10.1021/je700205n)
